Where these numbers come from: patent US6956040B2

Measured MIC, listed per entry for reference.
# System: MRSA 33
# experimentNotes: MIC, agar incorporation method
# Format: cell-based, Staphylococcus aureus
# runParameters: MRSA 33; agar incorporation
Form entry: value (µg/mL) — number only.

[
  {
    "molecule": "CC(=O)NC[C@H]1CN(c2ccc(N3C[C@@H]4[C@@H](CN(C)C(=O)Cc5cccs5)[C@@H]4C3)c(F)c2)C(=O)O1",
    "targetOfAssay": "MRSA 33",
    "unit": "µg/mL",
    "MIC": 4
  }
]

Respond only with MIC recorded for CC(=O)NC[C@H]1CN(c2ccc(N3CC4C(CN(C)Cc5ccc([N+](=O)[O-])o5)C4C3)c(F)c2)C(=O)O1 (stereo partly shown)
2

Respond only with MIC recorded for CC(=O)NC[C@H]1CN(c2ccc(N3CCN(Cc4ccc(Br)s4)CC3)c(F)c2)C(=O)O1
2

Respond only with MIC recorded for CC(=O)NC[C@H]1CN(c2ccc(N3CCN(Cc4ccc(C5OCCCO5)o4)CC3)c(F)c2)C(=O)O1
2

Respond only with MIC recorded for CC(=O)NC[C@H]1CN(c2ccc(N3CCN(Cc4ccc(Cl)s4)CC3)c(F)c2)C(=O)O1
4

Respond only with MIC recorded for CC(=O)NC[C@H]1CN(c2ccc(N3CCN(Cc4cc(Br)cs4)CC3)c(F)c2)C(=O)O1
2

* * *

# System: E. faecalis 29212
# experimentNotes: MIC, agar incorporation method
# Format: cell-based, Enterococcus faecalis
# runParameters: E. faecalis 29212; agar incorporation
quantityMeasured: MIC (µg/mL)
Form entry: value (µg/mL) — number only.

[
  {
    "molecule": "CC(=O)NC[C@H]1CN(c2ccc(N3CC4C(CN(C)Cc5ccc([N+](=O)[O-])o5)C4C3)c(F)c2)C(=O)O1 (stereo partly shown)",
    "MIC (µg/mL)": 2
  },
  {
    "molecule": "CC(=O)NC[C@H]1CN(c2ccc(N3CCC(N(C)Cc4ccc([N+](=O)[O-])o4)CC3)c(F)c2)C(=O)O1",
    "MIC (µg/mL)": 0.5
  },
  {
    "molecule": "CC(=O)NC[C@H]1CN(c2ccc(N3CCN(Cc4ccc(C=NO)o4)CC3)c(F)c2)C(=O)O1",
    "MIC (µg/mL)": 8
  }
]

Read the next record carefully.
Respond only with MIC recorded for CC(=O)NC[C@H]1CN(c2ccc(N3CCN(Cc4ccc(C5OCCCO5)o4)CC3)c(F)c2)C(=O)O1
16

* * *

Measured MIC90, listed per entry for reference.
# System: G+ve
# experimentNotes: Summary of in vitro activity (MIC) against G+ve bacteria
# Format: cell-based
# runParameters: G+ve, Number 49

Some compounds with recorded MIC90:
[
  {
    "compound": "CC(=O)NC[C@H]1CN(c2ccc(N3CCC(N(C)C(=O)c4ccc([N+](=O)[O-])o4)CC3)c(F)c2)C(=O)O1",
    "reported": "2 µg/mL"
  },
  {
    "compound": "CC1(C)S[C@@H]2[C@H](NC(=O)Cc3ccccc3)C(=O)N2[C@H]1C(=O)O [Penicillin G, reference compound]",
    "reported": "32 µg/mL"
  },
  {
    "compound": "CC(=O)NC[C@H]1CN(c2ccc(N3CCN(C(=O)c4ccc([N+](=O)[O-])s4)CC3)c(F)c2)C(=O)O1.Cl",
    "reported": "1 µg/mL"
  },
  {
    "compound": "CC(=O)NC[C@H]1CN(c2ccc(N3CCN(C(=O)c4ccc([N+](=O)[O-])o4)CC3)c(F)c2)C(=O)O1",
    "reported": "2 µg/mL"
  },
  {
    "compound": "CC(=O)NC[C@H]1CN(c2ccc(N3CC4C(CN(C)Cc5ccc([N+](=O)[O-])o5)C4C3)c(F)c2)C(=O)O1 (stereo partly shown)",
    "reported": "2 µg/mL"
  }
]

Respond only with MIC90 recorded for CC(=O)NC[C@H]1CN(c2ccc(N3CCC(N(C)Cc4ccc([N+](=O)[O-])o4)CC3)c(F)c2)C(=O)O1
2 µg/mL

Respond only with MIC90 recorded for CC(=O)NC[C@H]1CN(c2ccc(N3CCN(Cc4ccc([N+](=O)[O-])o4)CC3)c(F)c2)C(=O)O1
2 µg/mL
